assay: Accumulation of DOX in tumor tissue and organs, rat BN175 sarcoma model; type: in vivo, Brown Norway rats; conditions: male, Brown Norway, rat, heated BN175 tumor (HT 41.5°C), iv; 60 min after i.v. bolus 2 mg/kg DOX; HT 41.5°C; read-out: DOX concentration in the heated tumors
measured.quantity: concentration at 60 min (ng/g)
Numbers only, in ng/g.

Ask | State, in one line, measured concentration at 60 min of COc1cccc2c1C(=O)c1c(O)c3c(c(O)c1C2=O)C[C@@](O)(C(=O)CO)C[C@@H]3O[C@H]1C[C@H](N)[C@H](O)[C@H](C)O1 [non-liposomal DOX, doxorubicin]
Reply | 3100
